Experiment: Single dose fasted bioavailability study, 4 mg immediate release carbinoxamine maleate tablet
Type: in vivo
Settings: human, plasma, po, 4 mg, fasted, subject 102
outcome.measure: Cmax (ng/mL)
// units = ng/mL; emit number, no label

Req: Fill in the blank: the reported Cmax of CN(C)CCOC(c1ccc(Cl)cc1)c1ccccn1 (stereo not shown) [carbinoxamine] is ____.
Resp: 6.65

###

Experiment: Single dose bioavailability study in the non-fasted state, 4 mg immediate release carbinoxamine maleate tablet
Format: in vivo
Settings: human, plasma, po, 4 mg, nonfasted, Mean
Protocol: A single dose bioavailability study was also undertaken in the non-fasted state using 4 mg immediate release carbinoxamine maleate tablets formulated in an immediate release format. Samples were taken over a forty eight hours period after administration of the drug with heparinized tubes. Breakfast was ingested thirty minutes before administration. […]
outcome.measure: MRT (h)
// units = h; emit number, no label

Req: Fill in the blank: the reported MRT of CN(C)CCOC(c1ccc(Cl)cc1)c1ccccn1 (stereo not shown) is ____.
Resp: 26.9

###

Assay: Single dose fasted bioavailability study, 4 mg immediate release carbinoxamine maleate tablet
Format: in vivo
Settings: human, plasma, po; Our study, Tablet 4 mg; read-out: AUC0-* ·
outcome.measure: AUC (µg·h/mL)
// units = µg·h/mL; emit number, no label

Req: Fill in the blank: the reported AUC of CN(C)CCOC(c1ccc(Cl)cc1)c1ccccn1 (stereo not shown) is ____.
Resp: 0.161

###

Experiment: Single dose bioavailability study in the non-fasted state, 4 mg immediate release carbinoxamine maleate tablet
Format: in vivo
Settings: human, plasma, po, 4 mg, nonfasted, subject 102
outcome.measure: Tmax

Req: Fill in the blank: the reported Tmax of CN(C)CCOC(c1ccc(Cl)cc1)c1ccccn1 (stereo not shown) is ____.
Resp: 2 h

###

Experiment: Single dose bioavailability study in the non-fasted state, 4 mg immediate release carbinoxamine maleate tablet
Format: in vivo
Conditions: human, plasma, po, 4 mg, nonfasted, subject 103
outcome.measure: AUC(0-t) (ng·h/mL)
// units = ng·h/mL; emit number, no label

Req: Fill in the blank: the reported AUC(0-t) of CN(C)CCOC(c1ccc(Cl)cc1)c1ccccn1 (stereo not shown) [carbinoxamine] is ____.
Resp: 170

###

Test: Single dose bioavailability study in the non-fasted state, 4 mg immediate release carbinoxamine maleate tablet
Format: in vivo
Conditions: human, plasma, po, 4 mg, nonfasted, subject 102; read-out: AUC0-
outcome.measure: AUC (ng·h/mL)
// units = ng·h/mL; emit number, no label

Req: Fill in the blank: the reported AUC of CN(C)CCOC(c1ccc(Cl)cc1)c1ccccn1 (stereo not shown) [carbinoxamine] is ____.
Resp: 178

###

Assay: Single dose fasted bioavailability study, 4 mg immediate release carbinoxamine maleate tablet
Format: in vivo
Conditions: human, plasma, po, 4 mg, fasted, Mean
outcome.measure: Tmax (h)
// units = h; emit number, no label

Req: Fill in the blank: the reported Tmax of CN(C)CCOC(c1ccc(Cl)cc1)c1ccccn1 (stereo not shown) [carbinoxamine] is ____.
Resp: 3.33

###

Experiment: Single dose bioavailability study in the non-fasted state, 4 mg immediate release carbinoxamine maleate tablet
Format: in vivo
Details: human, plasma, po, 4 mg, nonfasted, subject 101
outcome.measure: half-life
Write the numeric value and append its unit.

Req: Fill in the blank: the reported half-life of CN(C)CCOC(c1ccc(Cl)cc1)c1ccccn1 (stereo not shown) is ____.
Resp: 17.1 h

###

Experiment: Literature 1 (Stockis et al. 1992): bioavailability of 8 mg aqueous solution and 8 mg retard capsule of carbinoxamine
Settings: in vivo, po; Literature 1, Retard capsule 8 mg, normalized to 4 mg dose
outcome.measure: AUC(0-t) (ng·h/mL)
// units = ng·h/mL; emit number, no label

Req: Fill in the blank: the reported AUC(0-t) of CN(C)CCOC(c1ccc(Cl)cc1)c1ccccn1 (stereo not shown) is ____.
Resp: 119

###

Test: Single dose fasted bioavailability study, 4 mg immediate release carbinoxamine maleate tablet
Type: in vivo
Conditions: human, plasma, po, 4 mg, fasted, subject 101, first AUC column
Description: A single dose fasted bioavailability study was undertaken using four milligram immediate release carbinoxamine maleate tablets formulated in an immediate release format. Samples were taken over a forty eight hours period after administration of the drug, and the first meal was allowed to be ingested four hours after administration. […]
outcome.measure: AUC(0-t) (ng·h/mL)
// units = ng·h/mL; emit number, no label

Req: Fill in the blank: the reported AUC(0-t) of CN(C)CCOC(c1ccc(Cl)cc1)c1ccccn1 (stereo not shown) is ____.
Resp: 169

###

Test: Single dose fasted bioavailability study, 4 mg immediate release carbinoxamine maleate tablet
Format: in vivo
Conditions: human, plasma, po, 4 mg, fasted, Mean
outcome.measure: MRT (h)
// units = h; emit number, no label

Req: Fill in the blank: the reported MRT of CN(C)CCOC(c1ccc(Cl)cc1)c1ccccn1 (stereo not shown) is ____.
Resp: 24.1

###

Test: Single dose fasted bioavailability study, 4 mg immediate release carbinoxamine maleate tablet
Type: in vivo
Conditions: human, plasma, po, 4 mg, fasted, subject 101, second AUC column
outcome.measure: AUC(0-t) (µg·h/mL)
// units = µg·h/mL; emit number, no label

Req: Fill in the blank: the reported AUC(0-t) of CN(C)CCOC(c1ccc(Cl)cc1)c1ccccn1 (stereo not shown) is ____.
Resp: 0.2

###

Test: Single dose bioavailability study in the non-fasted state, 4 mg immediate release carbinoxamine maleate tablet
Assay type: in vivo
Settings: human, plasma, po, 4 mg, nonfasted, subject 102
outcome.measure: MRT (h)
// units = h; emit number, no label

Req: Fill in the blank: the reported MRT of CN(C)CCOC(c1ccc(Cl)cc1)c1ccccn1 (stereo not shown) is ____.
Resp: 31.7

###

Assay: Literature 1 (Stockis et al. 1992): bioavailability of 8 mg aqueous solution and 8 mg retard capsule of carbinoxamine
Conditions: in vivo; Literature 1, Aqueous solution 8 mg, normalized to 4 mg dose
outcome.measure: AUC(0-t)
Write the numeric value and append its unit.

Req: Fill in the blank: the reported AUC(0-t) of CN(C)CCOC(c1ccc(Cl)cc1)c1ccccn1 (stereo not shown) is ____.
Resp: 143 ng·h/mL

###

Test: Single dose fasted bioavailability study, 4 mg immediate release carbinoxamine maleate tablet
Format: in vivo
Conditions: human, plasma, po, 4 mg, fasted, subject 103
outcome.measure: Tmax

Req: Fill in the blank: the reported Tmax of CN(C)CCOC(c1ccc(Cl)cc1)c1ccccn1 (stereo not shown) [carbinoxamine] is ____.
Resp: 2 h

###

Test: Single dose bioavailability study in the non-fasted state, 4 mg immediate release carbinoxamine maleate tablet
Type: in vivo
Conditions: human, plasma, po, 4 mg, nonfasted, Mean
outcome.measure: AUC(0-t) (µg·h/mL)
// units = µg·h/mL; emit number, no label

Req: Fill in the blank: the reported AUC(0-t) of CN(C)CCOC(c1ccc(Cl)cc1)c1ccccn1 (stereo not shown) [carbinoxamine] is ____.
Resp: 0.212

###

Experiment: Single dose bioavailability study in the non-fasted state, 4 mg immediate release carbinoxamine maleate tablet
Assay type: in vivo
Settings: human, plasma, po, 4 mg, nonfasted, subject 103; read-out: AUC0-
outcome.measure: AUC (ng·h/mL)
// units = ng·h/mL; emit number, no label

Req: Fill in the blank: the reported AUC of CN(C)CCOC(c1ccc(Cl)cc1)c1ccccn1 (stereo not shown) is ____.
Resp: 196

###

Test: Single dose fasted bioavailability study, 4 mg immediate release carbinoxamine maleate tablet
Assay type: in vivo
Details: human, plasma, po, 4 mg, fasted, subject 102, first AUC column
Description: A single dose fasted bioavailability study was undertaken using four milligram immediate release carbinoxamine maleate tablets formulated in an immediate release format. Samples were taken over a forty eight hours period after administration of the drug, and the first meal was allowed to be ingested four hours after administration. […]
outcome.measure: AUC(0-t) (ng·h/mL)
// units = ng·h/mL; emit number, no label

Req: Fill in the blank: the reported AUC(0-t) of CN(C)CCOC(c1ccc(Cl)cc1)c1ccccn1 (stereo not shown) [carbinoxamine] is ____.
Resp: 143

###

Test: Single dose bioavailability study in the non-fasted state, 4 mg immediate release carbinoxamine maleate tablet
Format: in vivo
Conditions: human, plasma, po, 4 mg, nonfasted, subject 103
outcome.measure: Tmax (h)
// units = h; emit number, no label

Req: Fill in the blank: the reported Tmax of CN(C)CCOC(c1ccc(Cl)cc1)c1ccccn1 (stereo not shown) is ____.
Resp: 2

###

Test: Single dose bioavailability study in the non-fasted state, 4 mg immediate release carbinoxamine maleate tablet
Format: in vivo
Settings: human, plasma, po, 4 mg, nonfasted, Mean
outcome.measure: Cmax
Write the numeric value and append its unit.

Req: Fill in the blank: the reported Cmax of CN(C)CCOC(c1ccc(Cl)cc1)c1ccccn1 (stereo not shown) is ____.
Resp: 12.6 ng/mL

###

Experiment: Single dose bioavailability study in the non-fasted state, 4 mg immediate release carbinoxamine maleate tablet
Assay type: in vivo
Settings: human, plasma, po, 4 mg, nonfasted, subject 101
outcome.measure: AUC(0-t) (ng·h/mL)
// units = ng·h/mL; emit number, no label

Req: Fill in the blank: the reported AUC(0-t) of CN(C)CCOC(c1ccc(Cl)cc1)c1ccccn1 (stereo not shown) is ____.
Resp: 175

// data source = patent US9339471B2
